B1: ZMYND11 (parent)
chain: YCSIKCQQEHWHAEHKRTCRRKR

variants of: B1; assay: protein stability index of a GFP-peptide fusion (GPS, HEK-293T) (PSI 1-6); higher = more stable; settings: c terminus: native;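 also: lentivirally expressed fusions sorted by FACS into six bins by GFP to DsRed ratio, PSI derived from sequencing read proportions per bin multiplied by bin number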
met means recorded protein stability index is 2 or above; not met means it is below 2.

The examples below pair each entry with its known result.
>  <biosequence>
YCSIKCQQEHWQAEHKRTCRRKR [H12Q]

>  <label class>
met

$$$$
>  <biosequence>
YCSIKCQQEHWHAEHKTTCRRKR [R17T]

>  <label class>
met

$$$$
>  <biosequence>
YCSIKCQQEHWHAYHKRTCRRKR [E14Y]

>  <label class>
met

$$$$
>  <biosequence>
YCSIKCQQEHWHANHKRTCRRKR [E14N]

>  <label class>
met

$$$$
>  <biosequence>
YCSIKCQQEHWHAEHKRTCHRKR [R20H]

>  <label class>
met

$$$$

Problem: # bool: protein stability index of YFSIKCQQEHWHAEHKRTCRRKR [C2F] >= 2
Result: met

Problem: # bool: protein stability index of YCSIKCQQEHWHAEHKRTCGRKR [R20G] >= 2
Result: met

Problem: # bool: protein stability index of YCSIKCQQEHWHAVHKRTCRRKR [E14V] >= 2
Result: met

Problem: # bool: protein stability index of YCSIKCQQEHWHAEHKRVCRRKR [T18V] >= 2
Result: not met

Problem: # bool: protein stability index of YCSIKCPQEHWHAEHKRTCRRKR [Q7P] >= 2
Result: met

Problem: # bool: protein stability index of YCSIKCQQEHWHAEHKRTCRRTR [K22T] >= 2
Result: not met

Problem: # bool: protein stability index of YCSIKCQQEEWHAEHKRTCRRKR [H10E] >= 2
Result: met

Problem: # bool: protein stability index of YCSIKCQREHWHAEHKRTCRRKR [Q8R] >= 2
Result: met

Problem: # bool: protein stability index of YCSIKLQQEHWHAEHKRTCRRKR [C6L] >= 2
Result: not met
